IC50 overview
- Test system: Vero
- protocol.notes: Cytotoxicity against African green monkey Vero cells after 48 hrs by MTT assay
- Format: cell-based
- measurement.setup: Chlorocebus sabaeus
parameter.measured: IC50 (µM)

CCN(CC)CCOc1ccc(-c2coc3cc(OCCN(CC)CC)ccc3c2=O)cc1; 102
CCN(CC)CC(O)COc1ccc(-c2coc3cc(OCC(O)CN(CC)CC)ccc3c2=O)cc1 (centres undefined); 60.1
CCCCNCCOc1ccc2c(c1)C(=O)c1cc(OCCNCCCC)ccc1-2; 8.89
O=C1c2cc(OCC(O)CN3CCCCC3)ccc2-c2ccc(OCC(O)CN3CCCCC3)cc21 (centres undefined); 13
CCCNCCOc1ccc2c(c1)C(=O)c1cc(OCCNCCC)ccc1-2; 8.47
CCCN(CCC)CC(O)COc1ccc(-c2coc3cc(OCC(O)CN(CCC)CCC)ccc3c2=O)cc1 (centres undefined); 35.5
O=c1c(-c2ccc(OCC(O)CN3CCCCC3)cc2)coc2cc(OCC(O)CN3CCCCC3)ccc12 (centres undefined); 18.5
CC(C)NCCOc1ccc2c(c1)C(=O)c1cc(OCCNC(C)C)ccc1-2; 14.8
CCCN(CCC)CC(O)COc1ccc2c(c1)C(=O)c1cc(OCC(O)CN(CCC)CCC)ccc1-2 (centres undefined); 57.8
